Origin of values: ChEMBL document CHEMBL4052637

Target: NAD-dependent protein deacetylase sirtuin-1 (Homo sapiens, UniProt Q96EB6)
Sequence (Q96EB6 whole entry): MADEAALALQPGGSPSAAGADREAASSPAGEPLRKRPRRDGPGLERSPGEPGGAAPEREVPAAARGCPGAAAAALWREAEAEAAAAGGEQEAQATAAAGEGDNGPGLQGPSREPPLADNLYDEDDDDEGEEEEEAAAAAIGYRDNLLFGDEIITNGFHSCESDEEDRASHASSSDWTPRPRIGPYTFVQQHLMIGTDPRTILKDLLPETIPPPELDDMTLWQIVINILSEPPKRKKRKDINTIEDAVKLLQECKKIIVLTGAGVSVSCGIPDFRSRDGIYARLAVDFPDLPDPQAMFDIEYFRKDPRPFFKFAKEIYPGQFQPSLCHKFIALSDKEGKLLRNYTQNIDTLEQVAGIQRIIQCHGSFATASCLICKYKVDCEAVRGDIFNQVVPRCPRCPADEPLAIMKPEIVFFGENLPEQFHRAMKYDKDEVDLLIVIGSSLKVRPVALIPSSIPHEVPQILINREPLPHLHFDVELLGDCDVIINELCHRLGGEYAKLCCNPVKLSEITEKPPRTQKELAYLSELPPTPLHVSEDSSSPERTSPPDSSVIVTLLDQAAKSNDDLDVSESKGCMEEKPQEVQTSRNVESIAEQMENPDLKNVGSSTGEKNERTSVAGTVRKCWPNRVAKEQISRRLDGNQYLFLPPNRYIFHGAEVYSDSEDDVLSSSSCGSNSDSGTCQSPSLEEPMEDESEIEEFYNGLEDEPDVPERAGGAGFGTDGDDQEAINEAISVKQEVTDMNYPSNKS
Experiment: Inhibition of N-terminal His-tagged recombinant human SIRT-1 expressed in Escherichia coli using Fluor-de-Lys-SIRT1 as substrate after 15 mins by fluorescence assay
Entries and their measured pIC50 follow.
Convention used: pIC50 is expressed as -log10 of the molar concentration.

Known pIC50 results, listed for orientation:
CC(C)(C)OC(=O)Nc1ccc2c(c1)C(NC(=O)Nc1cccc(Cl)c1)CC(C)(C)O2 (centres undefined) ... 4.49
CCOC(=O)Nc1ccc2c(c1)C(NC(=O)Nc1cccc(C#N)c1)CC(C)(C)O2 (centres undefined) ... 3.96
COC(=O)Nc1ccc2c(c1)C(NC(=O)Nc1cccc(C#N)c1)CC(C)(C)O2 (centres undefined) ... 3.96
N#C/C(=C\c1ccc(-c2cc(Cl)ccc2Cl)o1)C(=O)Nc1cccc2ncccc12 ... 4.01
CC(C)(C)OC(=O)Nc1ccc2c(c1)C(NC(=O)Nc1cccc(C#N)c1)CC(C)(C)O2 (centres undefined) ... 5.21
CC(C)(C)OC(=O)Nc1ccc2c(c1)C(NC(=O)Nc1ccc(C#N)cc1)CC(C)(C)O2 (centres undefined) ... 3.92

Here is another molecule to look at.
Lab note: CC(C)OC(=O)Nc1ccc2c(c1)C(NC(=O)Nc1cccc(C#N)c1)CC(C)(C)O2 (centres undefined) gave pIC50 of 4.26

---

Molecular target: NAD-dependent protein deacetylase sirtuin-2 (Homo sapiens, UniProt Q8IXJ6)
Sequence (Q8IXJ6 whole entry): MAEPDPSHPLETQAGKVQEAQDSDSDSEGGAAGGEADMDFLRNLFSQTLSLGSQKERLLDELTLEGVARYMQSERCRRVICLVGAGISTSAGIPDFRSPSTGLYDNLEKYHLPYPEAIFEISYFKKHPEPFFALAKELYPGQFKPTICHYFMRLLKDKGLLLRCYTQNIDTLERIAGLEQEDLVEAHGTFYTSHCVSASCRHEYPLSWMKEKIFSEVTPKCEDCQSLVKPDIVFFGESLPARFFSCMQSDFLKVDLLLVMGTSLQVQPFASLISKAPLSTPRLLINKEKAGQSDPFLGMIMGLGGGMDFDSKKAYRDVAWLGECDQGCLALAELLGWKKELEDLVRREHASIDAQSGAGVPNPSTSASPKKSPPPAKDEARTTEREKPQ
Assay: Inhibition of N-terminal His-tagged recombinant human SIRT-2 expressed in Escherichia coli using Fluor-de-Lys-SIRT1 as substrate after 15 mins by fluorescence assay
PROPERTY_MEASURED: log10(IC50) (log10 of the value in µM)
Scale: log10; quantity: IC50; unit before log: µM

CCOC(=O)Nc1ccc2c(c1)C(NC(=O)Nc1cccc(C#N)c1)CC(C)(C)O2 (centres undefined) ... 1.71
CC(C)(C)OC(=O)Nc1ccc2c(c1)C(NC(=O)Nc1cccc(Cl)c1)CC(C)(C)O2 (centres undefined) ... 1.27
CC(C)(C)OC(=O)Nc1ccc2c(c1)C(NC(=O)Nc1cccc(C#N)c1)CC(C)(C)O2 (centres undefined) ... 0.62
CC(C)(C)OC(=O)Nc1ccc2c(c1)C(NC(=O)Nc1ccc(C#N)cc1)CC(C)(C)O2 (centres undefined) ... 2.04

Summary for this molecule, COC(=O)Nc1ccc2c(c1)C(NC(=O)Nc1cccc(C#N)c1)CC(C)(C)O2 (centres undefined) : log10(IC50) is 1.69

For reference, reported log10(IC50) for Cc1ccc(C(=O)Nc2ccc(S(=O)(=O)O)c3cc(S(=O)(=O)O)cc(S(=O)(=O)O)c23)cc1NC(=O)c1cccc(NC(=O)Nc2cccc(C(=O)Nc3cc(C(=O)Nc4ccc(S(=O)(=O)O)c5cc(S(=O)(=O)O)cc(S(=O)(=O)O)c45)ccc3C)c2)c1 [SURAMIN] stands at 1.11

For reference, reported log10(IC50) for CC(C)OC(=O)Nc1ccc2c(c1)C(NC(=O)Nc1cccc(C#N)c1)CC(C)(C)O2 (centres undefined) stands at 1.36

log10(IC50) reported for this molecule CC(C)(C)OC(=O)Nc1ccc2c(c1)C(NC(=O)Nc1cccc([N+](=O)[O-])c1)CC(C)(C)O2 (racemic) : 2.00

---

# IC50 values compiled below
Target: NAD-dependent protein deacetylase sirtuin-3, mitochondrial (Homo sapiens, UniProt Q9NTG7)
Sequence (Q9NTG7 whole entry): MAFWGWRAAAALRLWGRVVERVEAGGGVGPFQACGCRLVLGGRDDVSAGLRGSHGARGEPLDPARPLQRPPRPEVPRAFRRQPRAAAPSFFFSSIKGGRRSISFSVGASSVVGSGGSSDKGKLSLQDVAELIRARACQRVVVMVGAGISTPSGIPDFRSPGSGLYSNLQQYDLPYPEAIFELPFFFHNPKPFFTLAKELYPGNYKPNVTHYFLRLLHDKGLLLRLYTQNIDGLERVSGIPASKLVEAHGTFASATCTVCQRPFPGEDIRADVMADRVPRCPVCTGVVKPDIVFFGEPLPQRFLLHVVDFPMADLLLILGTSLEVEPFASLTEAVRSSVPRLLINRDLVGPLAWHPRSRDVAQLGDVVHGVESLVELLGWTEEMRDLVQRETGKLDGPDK
Assay: Inhibition of N-terminal His-tagged recombinant human SIRT-3 expressed in Escherichia coli using Fluor-de-Lys-SIRT1 as substrate after 15 mins by fluorescence assay

Cc1ccc(C(=O)Nc2ccc(S(=O)(=O)O)c3cc(S(=O)(=O)O)cc(S(=O)(=O)O)c23)cc1NC(=O)c1cccc(NC(=O)Nc2cccc(C(=O)Nc3cc(C(=O)Nc4ccc(S(=O)(=O)O)c5cc(S(=O)(=O)O)cc(S(=O)(=O)O)c45)ccc3C)c2)c1 ... > 200 µM

IC50 reported for this compound CC(C)(C)OC(=O)Nc1ccc2c(c1)C(NC(=O)Nc1cccc(C#N)c1)CC(C)(C)O2 (configuration not stated) : > 200 µM
